The compounds listed here are annotated with their ΔTmD (°C).
Molecular target: UniProt:Q312S0
Design: gene dctP; without the native signal peptide; N-terminal His-tag removed with HRV 3C protease; DSF thermal shift with SYPRO Orange, PM4A Biolog compound screen, change of derivative melting temperature
Details: PM4A Biolog screen, compound concentration not disclosed; binder
Sequence (Q312S0 24-336): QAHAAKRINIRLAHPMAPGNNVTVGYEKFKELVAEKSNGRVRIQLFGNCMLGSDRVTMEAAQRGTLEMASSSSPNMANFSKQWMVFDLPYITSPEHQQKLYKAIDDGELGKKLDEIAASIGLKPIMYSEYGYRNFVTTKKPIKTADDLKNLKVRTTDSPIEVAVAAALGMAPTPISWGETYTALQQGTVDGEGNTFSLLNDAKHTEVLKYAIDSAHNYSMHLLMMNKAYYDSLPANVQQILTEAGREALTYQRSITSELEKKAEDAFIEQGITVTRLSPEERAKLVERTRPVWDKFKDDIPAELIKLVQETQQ
Give the number; °C is assumed, so skip it.

Examples from the recorded data:
[
  {
    "COMPOUND": "N[C@@H](CSCSC[C@H](N)C(=O)O)C(=O)O",
    "TARGET": "UniProt:Q312S0",
    "READOUT UNIT": "°C",
    "ΔTmD (°C)": -0.32
  },
  {
    "COMPOUND": "C[C@@H](OP(=O)(O)O)[C@H](N)C(=O)O",
    "TARGET": "UniProt:Q312S0",
    "READOUT UNIT": "°C",
    "ΔTmD (°C)": -0.62
  },
  {
    "COMPOUND": "N[C@@H](CS)C(=O)O",
    "TARGET": "UniProt:Q312S0",
    "READOUT UNIT": "°C",
    "ΔTmD (°C)": -0.68
  }
]

Notebook: `N[C@@H](CS(=O)(=O)O)C(=O)O` , ΔTmD (°C) read as 0.11

The recorded ΔTmD (°C) for `CS(=O)(=O)O` is 0.23

Entry NC(=O)OP(=O)(O)O [carbamoyl phosphate] ; ΔTmD (°C) = -0.49

The compound `N[C@@H](CCC(=O)N[C@@H](CS)C(=O)NCC(=O)O)C(=O)O` showed ΔTmD (°C) equal to -0.67

Entry under test: `NCCS` . Its ΔTmD (°C) was 0.35

ΔTmD (°C) measured on `CSCC[C@H](NC(=O)CN)C(=O)O` = -0.01

ΔTmD (°C) for C[S+]([O-])CC[C@H](N)C(=O)O (stereo partly drawn) [L-methionine sulfoxide] is 0.29

ΔTmD (°C) for O=P(O)(O)OC[C@H]1OC(O)[C@@H](O)[C@@H](O)[C@@H]1O (stereo partly drawn) [D-mannose-6-phosphate] is -0.09

Sample `CN(CC(=O)O)C(=N)NP(=O)(O)O` ; ΔTmD (°C) observed: 0.41

In plain terms, O=P(O)(O)OC(CO)CO [b-glycerol phosphate] has a documented ΔTmD (°C) of -0.30

Per the record, `N[C@@H](CCSC[C@H](N)C(=O)O)C(=O)O` has ΔTmD (°C) of 0.61

Measured ΔTmD (°C), `NCCS(=O)O` : -0.68

Note to self: ΔTmD (°C) recorded for `N[C@H](CS)C(=O)O` was 1.14

Lab note: `N[C@@H](CS)C(=O)NCC(=O)O` gave ΔTmD (°C) of 1.14

Reported ΔTmD (°C) of `CSCC[C@H](N)C(=O)O` : -0.92

Please fill in: ΔTmD (°C) reported for `N[C@H](Cc1ccc(OP(=O)(O)O)cc1)C(=O)O` = 0.87

The reported value for O=C[C@H](O)[C@@H](O)[C@H](O)[C@H](O)COP(=O)(O)O [D-glucose-6-phosphate] in terms of ΔTmD (°C) is -0.85

Lab note: measured ΔTmD (°C) of O=P(O)(O)O[C@H]1[C@H](OP(=O)(O)O)[C@@H](OP(=O)(O)O)[C@H](OP(=O)(O)O)[C@@H](OP(=O)(O)O)[C@H]1OP(=O)(O)O [inositol hexaphosphate] was 0.46

----------
Attribute: ΔTmD (°C)
Molecular target: OaIseP (isethionate-specific TRAP substrate-binding protein IseP) (Oleidesulfovibrio alaskensis, UniProt Q312S0)
Parameters: gene dctP; without the native signal peptide; N-terminal His-tag removed with HRV 3C protease; DSF thermal shift with SYPRO Orange, PM4A Biolog compound screen, change of derivative melting temperature
Details: PM4A Biolog screen, compound concentration not disclosed; binder
The reply must contain the numeric value and, after it, the unit.

Look over these answered cases.
[
  {
    "COMPOUND": "O=S1(=O)CCCC1",
    "ΔTmD (°C)": "0.23 ± 0.11 °C"
  },
  {
    "COMPOUND": "C=C(OP(=O)(O)O)C(=O)O [phosphoenolpyruvate]",
    "ΔTmD (°C)": "-0.63 ± 0.24 °C"
  },
  {
    "COMPOUND": "NC(N)=S",
    "ΔTmD (°C)": "-0.73 ± 0.31 °C"
  }
]

The compound listed as O=S(=O)(O)CCO [isethionate, 2-hydroxyethane sulfonate] has a reported ΔTmD (°C) of 6.52 ± 0.18 °C

Entry `N[C@@H](Cc1ccc(OP(=O)(O)O)cc1)C(=O)O` — recorded ΔTmD (°C) = -0.73 ± 0.33 °C

Documented ΔTmD (°C) of O=P(O)(O)O[C@H]1O[C@H](CO)[C@@H](O)[C@H](O)[C@H]1O [D-glucose-1-phosphate] : 0.92 ± 0.26 °C

Just so you know, measured ΔTmD (°C) for `O=C(O)COP(=O)(O)O` came out at 0.31 ± 0.21 °C

Measured ΔTmD (°C), `CSCC[C@@H](N)C(=O)O` : -0.62 ± 0.38 °C

// ΔTmD (°C) value for `CC(=O)N[C@@H](CS)C(=O)O` : -0.64 ± 0.24 °C

For reference, reported ΔTmD (°C) for N[C@@H](CS(=O)O)C(=O)O [L-cysteine sulfinate] stands at 0.53 ± 0.00 °C

Value of ΔTmD (°C) reported for the compound `CSC[C@H](N)C(=O)O` is -0.41 ± 0.48 °C

Per the record, `CS(=O)(=O)CC[C@H](N)C(=O)O` has ΔTmD (°C) of 0.44 ± 0.13 °C

Lab note: O=P(O)(O)OC1O[C@H](CO)[C@@H](O)[C@H](O)[C@@H]1O (stereo partly drawn) [D-mannose-1-phosphate] gave ΔTmD (°C) of 0.69 ± 0.31 °C

Just so you know, measured ΔTmD (°C) for NC(=O)CCCCC1CCSS1 (racemic) [DL-lipoamide] came out at 0.60 ± 0.38 °C

Form: compound = `N[C@H](COP(=O)(O)O)C(=O)O` ; ΔTmD (°C) = 0.05 ± 0.42 °C

Per the record, `N[C@@H](CSC[C@H](N)C(=O)O)C(=O)O` has ΔTmD (°C) of -0.46 ± 0.10 °C

CCCCS(=O)(=O)O [butane sulfonate] has a reported ΔTmD (°C) of 0.41 ± 0.46 °C

----------
Molecular target: OaIseP (isethionate-specific TRAP substrate-binding protein IseP) (Oleidesulfovibrio alaskensis)
QUANTITY KIND: Kd (µM)
Kindly answer with a numeric value in µM, unit omitted.

Input O=S(=O)(O)CCO [isethionate, 2-hydroxyethane sulfonate] . Output Kd: 0.95
